- Experimental system: rat liver FBPase (Rattus norvegicus)
- Sequence (P19112 2-363 limits assumed): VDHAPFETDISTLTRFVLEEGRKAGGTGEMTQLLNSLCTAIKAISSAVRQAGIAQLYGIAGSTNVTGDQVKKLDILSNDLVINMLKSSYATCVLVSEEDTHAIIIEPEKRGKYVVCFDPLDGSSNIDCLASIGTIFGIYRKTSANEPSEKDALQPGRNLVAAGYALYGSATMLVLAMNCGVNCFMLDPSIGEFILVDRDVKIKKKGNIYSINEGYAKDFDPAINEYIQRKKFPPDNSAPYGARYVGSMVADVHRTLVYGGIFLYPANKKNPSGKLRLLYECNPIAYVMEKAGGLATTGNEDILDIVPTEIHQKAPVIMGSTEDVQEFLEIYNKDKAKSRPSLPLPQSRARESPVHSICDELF
Reported endpoint: pIC50
Here pIC50 is given on a logarithmic scale as minus log10 of the concentration in mol/L.

Qu. // fetch pIC50 for Nc1ncnc2c1ncn2[C@@H]1O[C@H](COP(=O)(O)O)[C@@H](O)[C@H]1O [AMP] ; system: rat liver FBPase (Rattus norvegicus)
Ans. 4.60

---

- Experimental system: human liver FBPase (Homo sapiens, UniProt P09467)
- Sequence (P09467 2-338 limits assumed): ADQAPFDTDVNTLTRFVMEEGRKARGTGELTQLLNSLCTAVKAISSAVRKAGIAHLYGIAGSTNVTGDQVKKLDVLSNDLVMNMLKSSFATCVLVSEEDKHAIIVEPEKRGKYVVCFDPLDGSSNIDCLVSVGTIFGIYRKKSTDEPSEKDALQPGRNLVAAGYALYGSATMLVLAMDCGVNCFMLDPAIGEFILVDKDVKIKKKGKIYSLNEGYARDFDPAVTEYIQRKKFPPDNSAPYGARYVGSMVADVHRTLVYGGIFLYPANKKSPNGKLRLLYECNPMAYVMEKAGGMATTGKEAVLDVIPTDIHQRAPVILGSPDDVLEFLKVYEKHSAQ
Reported endpoint: IC50 (nM)
# value in nM; strip the unit string

Qu. Output reported IC50 of the molecule "Nc1ncnc2c1ncn2[C@@H]1O[C@H](COP(=O)(O)O)[C@@H](O)[C@H]1O" on human liver FBPase (Homo sapiens, UniProt P09467).
Ans. 1300

---

- Test system: gluconeogenesis in rat hepatocytes
- Test description: Inhibition of gluconeogenesis in rat hepatocytes (Example C)
- Format: cell-based
- Condition notes: Hepatocyte, glucose production from lactate/pyruvate, 1 hour
Reported endpoint: IC50 (µM)
Field format: number, assumed µM, no unit text.

Qu. Please indicate recorded IC50 of "CC(=O)OC[C@H]1O[C@@H](n2cnc(C(N)=O)c2Br)[C@H](OC(C)=O)[C@@H]1OC(C)=O" measured with gluconeogenesis in rat hepatocytes.
Ans. 50
